Parameter: survival. Scope: all listed entries.
- System: DeltatarO mutant
- procedure_text: S. aureus survival, RN4220 and DeltatarO strains – OD600, teichoic acid synthesis inhibitors, primary screen (AID 463173)
- condition_summary: S. aureus RN4220 wild type/DeltatarO growth, OD600, 18 h, hits give low values, screened at 18.75 µg/mL (by protocol)
Hit rate of the full screen: of about 52,000 compounds, about 4,300 (8.3%) were called active. The sample holds actives, similar compounds and a random draw of the others, so the mix is not that of the screen.
Unit % implied. Number only.

These recorded examples may help you get a feel for the data.
{"columns": ["molecule", "measurement_target", "assay_value"],
 "data": [
  ["CSc1ccc(CCNC(=O)c2cnn(-c3ccccc3)c2-n2cccc2)cc1", "DeltatarO mutant", 46],
  ["Cc1cccc(C(=O)NCc2nc3ccccc3n2Cc2ccccc2Cl)c1", "DeltatarO mutant", 106]
]}

Which survival reading was recorded for the molecule Oc1c(C(Nc2ccccn2)c2ccccc2F)ccc2cccnc12 (configuration not stated) ?
102
